assayComment: Ratio of drug level in brain to plasma in rat at 10 mg/kg, po after 2 hrs
Assay type: ADME, organism-based
Set-up: dose 10 mg/kg, route oral
experimentalConditions: brain and plasma
measuredParameter: Kp at 2 h
Provide a numeric answer; units are not to be included.

Asked: Entry COC[C@H]1CCCN1c1cc(NC(C)=O)nc(-n2nc(C)cc2C)n1 : reported Kp at 2 h = ?
Given back: 0.46

---

testedSystem: Adenosine receptor A2a (Homo sapiens)
Sequence (P29274 whole entry): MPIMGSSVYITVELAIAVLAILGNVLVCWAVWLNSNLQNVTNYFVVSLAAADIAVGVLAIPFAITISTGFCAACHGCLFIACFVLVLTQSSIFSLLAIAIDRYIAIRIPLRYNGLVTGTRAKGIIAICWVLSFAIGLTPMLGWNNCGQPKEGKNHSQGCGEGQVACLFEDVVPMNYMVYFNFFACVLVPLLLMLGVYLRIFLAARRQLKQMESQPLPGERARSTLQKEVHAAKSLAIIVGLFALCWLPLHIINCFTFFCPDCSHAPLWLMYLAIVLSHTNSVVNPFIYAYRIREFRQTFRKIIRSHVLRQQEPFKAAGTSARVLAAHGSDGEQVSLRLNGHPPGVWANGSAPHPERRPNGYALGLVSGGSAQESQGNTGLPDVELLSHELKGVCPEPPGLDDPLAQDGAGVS
pKi: −log10 of the molar value.
# label = Met if pKi >= 8 else Not met

Reference set (5 entries):
- structureSmilesString: "COC[C@@H]1CCCN1c1cc(NC(C)=O)nc(-c2ccc(C)o2)n1"
  testedSystem: "Adenosine receptor A2a (Homo sapiens)"
  categoryLabel: "Not met"
- structureSmilesString: "CC(=O)Nc1cc(N2CCc3ccccc3C2)nc(-n2nc(C)cc2C)n1"
  testedSystem: "Adenosine receptor A2a (Homo sapiens)"
  categoryLabel: "Met"
- structureSmilesString: "COC[C@H]1CCCN1c1cc(NC(C)=O)nc(-c2ccc(C)o2)n1"
  testedSystem: "Adenosine receptor A2a (Homo sapiens)"
  categoryLabel: "Met"
- structureSmilesString: "COC[C@H]1CCCN1c1cc(NC(C)=O)nc(-c2ccccn2)n1"
  testedSystem: "Adenosine receptor A2a (Homo sapiens)"
  categoryLabel: "Not met"
- structureSmilesString: "COC[C@H]1CCCN1c1cc(NC(C)=O)nc(-n2nc(C)cc2C)n1"
  testedSystem: "Adenosine receptor A2a (Homo sapiens)"
  categoryLabel: "Met"

--- query ---
Asked: Given CC(=O)Nc1cc(N2CCCCC2)nc(-n2nc(C)cc2C)n1 , state whether its pKi is at least 8.
Given back: Not met

# credit: ChEMBL document CHEMBL1143380
